test system: GL15; assay: MTT assay, GL15 neuroblastoma cell lines; assay type: cell-based; settings: incubated 18 hours, read-out: inhibitory activity against different cancer cells (IC50)
attribute-measured: IC50 (nM)
Write the number in nM without appending the unit.

I'd like to know its IC50. The compound in question is `CC1=C2CC[C@@](C)(O)[C@@H]2[C@H]2OC(=O)[C@@H](CN(C)C)[C@@H]2CC1`
12.6

###

tested on: CNE-1; assay: MTT assay, CNE-1 high differentiation nasopharyngeal carcinoma cell line; type: cell-based; conditions: 18 h, incubated 18 hours, read-out: inhibitory activity against different cancer cells (IC50)
Listed below: IC50 values for each entry.
Write the number in nM without appending the unit.

C=C1C(=O)O[C@H]2[C@H]1CC[C@]1(C)O[C@@]13CC[C@@](C)(O)[C@H]23 [Compound IV, 1,10-Epoxymicheliolide] = 6.7

Read the next record carefully.
I'd like to know its IC50. The compound in question is C=C1C(=O)O[C@H]2[C@H]1CCC(C)=C1CC[C@@](C)(OC(=O)CC)[C@@H]12 [Compound III, 4-propionylmicheliolide]
5.9

###

test system: CNE-2; assay: MTT assay, CNE-2 poorly differentiated nasopharyngeal carcinoma cell lines; format: cell-based; conditions: Homo sapiens, CNE-2, 18 h, incubated 18 hours, read-out: inhibitory activity against different cancer cells (IC50)
attribute-measured: pIC50
Reminder that pIC50 means the negative base-10 logarithm of the concentration expressed in mol/L.

Check out these entries, answers already filled in.
C=C1C(=O)O[C@H]2[C@H]1CC[C@]1(C)O[C@@]13CC[C@@](C)(O)[C@H]23 [Compound IV, 1,10-Epoxymicheliolide] = 8.25
CC1=C2CC[C@@](C)(O)[C@@H]2[C@H]2OC(=O)[C@@H](CN(C)C)[C@@H]2CC1 = 7.78

Read the next record carefully.
I'd like to know its pIC50. The molecule in question is C=C1C(=O)O[C@H]2[C@H]1CCC(C)=C1CC[C@@](C)(OC(=O)CC)[C@@H]12 [Compound III, 4-propionylmicheliolide]
7.91

###

tested on: A498; assay: MTT assay, A498 renal cell carcinoma cell line; format: cell-based; settings: Homo sapiens, A498, 18 h, incubated 18 hours, read-out: inhibitory activity against different cancer cells (IC50)
attribute-measured: pIC50
Reminder that pIC50 means the negative base-10 logarithm of the concentration expressed in mol/L.

Check out these entries, answers already filled in.
CC1=C2CC[C@@](C)(O)[C@@H]2[C@H]2OC(=O)[C@@H](CN(C)C)[C@@H]2CC1 [Compound II] = 7.91
C=C1C(=O)O[C@H]2[C@H]1CC[C@]1(C)O[C@@]13CC[C@@](C)(O)[C@H]23 [Compound IV, 1,10-Epoxymicheliolide] = 8.37

Read the next record carefully.
I'd like to know its pIC50. The compound in question is C=C1C(=O)O[C@H]2[C@H]1CCC(C)=C1CC[C@@](C)(OC(=O)CC)[C@@H]12 [Compound III, 4-propionylmicheliolide]
8.28

###

test system: SGC7901; assay: MTT assay, SGC7901 gastric cancer cell line; type: cell-based; details: Homo sapiens, SGC-7901, 18 h, incubated 18 hours, read-out: inhibitory activity against different cancer cells (IC50)
Listed below: pIC50 values for each entry.
Reminder that pIC50 means the negative base-10 logarithm of the concentration expressed in mol/L.

Check out these entries, answers already filled in.
C=C1C(=O)O[C@H]2[C@H]1CCC(C)=C1CC[C@@](C)(OC(=O)CC)[C@@H]12 [Compound III, 4-propionylmicheliolide] = 7.83
CC1=C2CC[C@@](C)(O)[C@@H]2[C@H]2OC(=O)[C@@H](CN(C)C)[C@@H]2CC1 = 7.84

Read the next record carefully.
I'd like to know its pIC50. The molecule in question is C=C1C(=O)O[C@H]2[C@H]1CC[C@]1(C)O[C@@]13CC[C@@](C)(O)[C@H]23 [Compound IV, 1,10-Epoxymicheliolide]
7.87
